- measurement-target: human c-Met (HGFR), full length, on the cell surface (human, UniProt P08581 25-1390)
- Sequence (P08581 25-1390 limits assumed): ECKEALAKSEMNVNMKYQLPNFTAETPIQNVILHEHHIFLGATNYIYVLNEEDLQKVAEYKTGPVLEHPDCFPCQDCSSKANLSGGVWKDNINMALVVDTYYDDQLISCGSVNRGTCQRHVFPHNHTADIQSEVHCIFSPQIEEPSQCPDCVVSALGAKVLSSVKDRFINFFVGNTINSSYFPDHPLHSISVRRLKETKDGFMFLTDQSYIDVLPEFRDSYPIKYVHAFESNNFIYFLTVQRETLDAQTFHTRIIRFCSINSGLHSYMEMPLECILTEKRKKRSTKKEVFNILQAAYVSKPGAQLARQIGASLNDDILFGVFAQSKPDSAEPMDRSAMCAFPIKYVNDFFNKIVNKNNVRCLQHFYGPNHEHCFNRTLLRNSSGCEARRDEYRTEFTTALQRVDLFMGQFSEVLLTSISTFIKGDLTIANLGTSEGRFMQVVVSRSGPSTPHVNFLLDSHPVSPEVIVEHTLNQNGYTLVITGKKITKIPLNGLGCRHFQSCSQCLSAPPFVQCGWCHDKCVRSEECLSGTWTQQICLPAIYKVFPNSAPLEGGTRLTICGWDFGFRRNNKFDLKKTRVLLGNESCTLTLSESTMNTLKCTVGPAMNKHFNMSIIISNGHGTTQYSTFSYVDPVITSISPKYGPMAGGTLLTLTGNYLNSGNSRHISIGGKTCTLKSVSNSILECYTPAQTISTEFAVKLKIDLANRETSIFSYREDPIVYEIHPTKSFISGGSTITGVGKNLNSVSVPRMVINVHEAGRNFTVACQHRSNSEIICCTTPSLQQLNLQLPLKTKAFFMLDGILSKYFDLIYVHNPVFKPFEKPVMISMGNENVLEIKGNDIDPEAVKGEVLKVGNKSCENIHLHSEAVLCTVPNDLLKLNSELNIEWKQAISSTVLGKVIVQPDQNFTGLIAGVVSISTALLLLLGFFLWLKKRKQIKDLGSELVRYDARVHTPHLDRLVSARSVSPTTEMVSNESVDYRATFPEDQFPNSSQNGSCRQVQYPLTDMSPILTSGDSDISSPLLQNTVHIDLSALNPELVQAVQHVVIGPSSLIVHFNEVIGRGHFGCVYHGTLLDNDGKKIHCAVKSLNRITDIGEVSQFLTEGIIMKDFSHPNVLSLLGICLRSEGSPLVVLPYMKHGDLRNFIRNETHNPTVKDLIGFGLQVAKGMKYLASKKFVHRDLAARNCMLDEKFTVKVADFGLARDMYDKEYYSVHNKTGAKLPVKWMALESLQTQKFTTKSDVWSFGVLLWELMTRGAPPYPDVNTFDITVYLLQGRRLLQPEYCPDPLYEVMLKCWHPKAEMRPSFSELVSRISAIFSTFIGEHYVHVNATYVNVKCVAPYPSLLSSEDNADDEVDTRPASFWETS
- assay-summary: cell-based or functional assay
readout-type: Efficacy (%), in vitro cytotoxicity, PC-3, +HGF

binder="ADC3 (antibody, human IgG1, kappa, V domains shown, vc-seco-DUBA linker-drug on the engineered cysteine at HC position 41 (Kabat); DAR 1.1) VH: QIQLQQSGPELVKPGASVKISCKASGYTFTDYYLNWVKQRCGQGLEWIGLIFPGNDKTEYSEKFKGKATLTVDTSSSTAYIQLSRLSSEDSAIYFCSGGDYGGFVYWGQGTLVTVSS VL: DIQMTQSPTSLSASVGETVTITCGASENIYGALNWYQRKQGKSPQLLIYGATNLADGMSSRFSGSGSGRQFSLKINSLHPDDVATYFCQNVLSSPLTFGSGTKLEIKR" data_value=30%
binder="ADC3c (antibody, human IgG1, kappa, V domains shown, vc-seco-DUBA linker-drug on the engineered cysteine at HC position 41 (Kabat); DAR 1.8) VH: QVQLVQSGAEVKKPGASVKVSCKASGYTFTDYYLNWVRQACGQGLEWMGLIFPGNDKTEYSEKFKGRVTLTTDTSISTAYMELSSLTSDDTALYYCSGGDYGGFVYWGQGTLVTVSS VL: DIQMTQSPSSLSASVGDRVTITCGASENIYGALNWYQQKPGKAPKLLIYGATNLADGVPSRFSGSGSGTDFTLTISSLQPEDVATYYCQNVLSSPLTFGSGTKLEIKR" data_value=72%
binder="ADC2a (antibody, human IgG1, kappa, V domains shown, vc-seco-DUBA linker-drug on the engineered cysteine at HC position 41 (Kabat); DAR 1.7) VH: QVQLVQSGAELRKPGSSVKVSCRASGYVFPDYEMHWVRQACGQGLEWMGAFDPETGDTTYNQNFKGRVTIAADKSTSTAYMELRSLRSEDTAIYYCARDYKYLYYYAMDNWGQGTMVTVSS VL: EIVLTQSPSLLSASIGDRVTIPCTASSSITSSYLHWYQQKPGKAPKLLIYSTTNLASGVPSRFSGSGSGTEFTLTISSLQPEDFATYYCHQYRRSPLTFGGGTKLEIKR" data_value=76%
binder="ADC2b (antibody, human IgG1, kappa, V domains shown, vc-seco-DUBA linker-drug on the engineered cysteine at HC position 41 (Kabat); DAR 1.7) VH: QVQLVQSGAEVKKPGSSVKVSCKASGYVFPDYEMHWVRQACGQGLEWMGAFDPETGDTTYNQNFKGRVTITADKSTSTAYMELSSLRSEDTAVYYCARDYKYLYYYAMDNWGQGTTVTVSS VL: DIQMTQSPSSLSASVGDRVTITCTASSSITSSYLHWYQQKPGKAPKLLIYSTTNLASGVPSRFSGSGSGTDFTLTISSLQPEDFATYYCHQYRRSPLTFGGGTKLEIKR" data_value=75%
binder="ADC3e (antibody, human IgG1, kappa, V domains shown, vc-seco-DUBA linker-drug on the engineered cysteine at HC position 41 (Kabat); DAR 1.9) VH: QVQLQESGAEVKKPGASVKVSCKASGYTFTDYYLNWVRQACGQGLEWMGLIFPGNDKTEYSEKFKGRVTMTRDTSTSTVYMELSSLRSEDTAVYYCSGGDYGGFVYWGQGTLVTVSS VL: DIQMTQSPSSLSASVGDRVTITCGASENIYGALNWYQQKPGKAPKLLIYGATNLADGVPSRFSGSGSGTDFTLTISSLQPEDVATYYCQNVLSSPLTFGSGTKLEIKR" data_value=74%
binder="ADC3b (antibody, human IgG1, kappa, V domains shown, vc-seco-DUBA linker-drug on the engineered cysteine at HC position 41 (Kabat); DAR 1.9, Antibody-drug conjugate of mAb3b; also called mAb3b-vc-seco-DUBA) VH: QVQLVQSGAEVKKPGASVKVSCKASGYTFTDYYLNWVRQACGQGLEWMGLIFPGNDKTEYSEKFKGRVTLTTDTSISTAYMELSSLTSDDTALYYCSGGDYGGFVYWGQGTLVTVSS VL: DIQMTQSPSSLSASVGDRVTISCGASENIYGALNWYQQQPGKAPKVLIFGATNLADGVPSRFSGSGSGTDFTLTISSLQPEDFATYYCQNVLSSPLTFGQGTKLEIKR" data_value=75%
binder="ADC3a (antibody, human IgG1, kappa, V domains shown, vc-seco-DUBA linker-drug on the engineered cysteine at HC position 41 (Kabat); DAR 1.9) VH: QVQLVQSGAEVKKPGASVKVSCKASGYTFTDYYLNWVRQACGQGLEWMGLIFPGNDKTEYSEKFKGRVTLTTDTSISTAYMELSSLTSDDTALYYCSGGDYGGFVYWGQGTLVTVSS VL: DIQLTQSPSSLSASVGDRVTITCGASENIYGALNWYQQKPGKAPKLLIYGATNLADGVPSRFSGSGSGTDFTLTISSLQPEDFATYYCQNVLSSPLTFGPGTKVDIKR" data_value=72%
binder="ADC3d (antibody, human IgG1, kappa, V domains shown, vc-seco-DUBA linker-drug on the engineered cysteine at HC position 41 (Kabat); DAR 1.8) VH: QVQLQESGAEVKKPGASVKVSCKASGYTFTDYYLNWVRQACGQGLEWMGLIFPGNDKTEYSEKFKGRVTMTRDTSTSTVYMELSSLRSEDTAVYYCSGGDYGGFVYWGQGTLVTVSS VL: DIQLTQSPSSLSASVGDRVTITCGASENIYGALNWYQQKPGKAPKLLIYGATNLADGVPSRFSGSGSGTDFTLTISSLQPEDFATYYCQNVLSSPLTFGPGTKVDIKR" data_value=73%
binder="ADC1 (antibody, human IgG1, kappa, V domains shown, vc-seco-DUBA linker-drug on the engineered cysteine at HC position 41 (Kabat); DAR 1.5) VH: EVQLQQSGPELLKPGASVKMSCKASGYIFTDYFMNWVKQSCGKSLEWIGRVNPKNGDITYNQKFRGKATLTVDKSLTTAYMQLNSLTSEDSAVYFCAYDGYYDGMDFWGQGTSVTVSS VL: ENVLTQSPAIMSASPGEKVTMTCRANSSVSSNFLHWYQQKSGASPKLWISSTSNLAFGVPPRFSGSGSGTSYSLTISSVEAEDAATYYCHQYSGHPFTFGSGTKLEIKR" data_value=42%
binder="ADC1a (antibody, human IgG1, kappa, V domains shown, vc-seco-DUBA linker-drug on the engineered cysteine at HC position 41 (Kabat); DAR 1.7) VH: QVQLVQSGAEVKKPGASVKVSCKASGYIFTDYFMNWVRQACGQGLEWMGRVNPKNGDITYNQKFRGRVSLTKDTSINTAYMELSGLTSDDTAIYYCAYDGYYDGMDFWGQGTSVTVSS VL: ELVMTQSPSSLSASVGDRVTITCRANSSVSSNFLHWYQQKPGKAPKLLISSTSNLAFGVPSRFSGTGSGTDFSLTISSLQPEDFAIYYCHQYSGHPFTFGQGTKLEIKR" data_value=77%
binder="ADC2c (antibody, human IgG1, kappa, V domains shown, vc-seco-DUBA linker-drug on the engineered cysteine at HC position 41 (Kabat); DAR 1.7) VH: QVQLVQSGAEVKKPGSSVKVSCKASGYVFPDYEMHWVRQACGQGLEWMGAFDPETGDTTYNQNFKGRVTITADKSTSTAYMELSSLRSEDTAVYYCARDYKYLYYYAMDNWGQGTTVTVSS VL: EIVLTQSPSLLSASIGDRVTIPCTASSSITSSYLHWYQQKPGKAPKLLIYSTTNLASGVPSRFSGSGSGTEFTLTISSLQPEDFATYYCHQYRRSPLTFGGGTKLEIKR" data_value=75%
